assay.summary: MTT cytotoxicity assay in HEK293 cells
Type: cell-based, human
condition.summary: HEK293T cells; human embryonic kidney 293T, concentration not given; read-out: cells alive
Where no end group is shown, it is not given here.
reported.metric: viability at 24 h

Entry RRLIRTDTGPIIYDYFKDQLLKKGMVILRESMKNLKGM [octopromycin] has what viability at 24 h?
≥ 85%

----------
assay.summary: MTT cytotoxicity assay in Raw 264.7 cells
Assay type: cell-based
condition.summary: mouse, Raw 264.7 cells; Raw 264.7, concentration not stated; read-out: cells alive
Where no end group is shown, it is not given here.
reported.metric: viability at 24 h

Any idea what its viability at 24 h is? The sequence is RRLIRTDTGPIIYDYFKDQLLKKGMVILRESMKNLKGM [octopromycin]
≥ 85%
